measured-on: intracellular domain of human Tie2 (GST fusion protein) (Homo sapiens, UniProt Q02763)
Construct: intracellular domain of human Tie2 (amino acids 776-1124)
Sequence (Q02763 776-1124): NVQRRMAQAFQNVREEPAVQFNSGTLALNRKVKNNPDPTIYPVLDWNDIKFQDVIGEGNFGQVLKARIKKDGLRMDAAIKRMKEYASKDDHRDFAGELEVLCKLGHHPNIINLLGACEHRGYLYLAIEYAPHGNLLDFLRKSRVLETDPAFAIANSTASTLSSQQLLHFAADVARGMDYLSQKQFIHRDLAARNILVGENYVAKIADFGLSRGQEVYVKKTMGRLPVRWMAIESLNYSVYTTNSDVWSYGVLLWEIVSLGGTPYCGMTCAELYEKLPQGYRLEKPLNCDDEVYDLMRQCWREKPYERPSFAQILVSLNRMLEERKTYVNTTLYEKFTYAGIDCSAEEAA
protocol-details: Tie2 kinase assay (Tie2-TR-FRET)
measurement-setup: ATP concentration 1 mM, in some cases means of several independent determinations
// values below are reported IC50
Lab book: enter the figure in nM, no units written.

Check out these entries, answers already filled in.
### Prompt Given the compound Cc1ccc(NC(=O)c2cc(CN3CCCC3)cc(S(F)(F)(F)(F)F)c2)cc1-n1ccn2nc(-c3cccnc3)cc12 [Example 33] , what is its reported IC50?
### Response 2.5

### Prompt Name the reported IC50 value associated with the compound Cc1cc(C)c(-n2ccn3nc(-c4cccnc4)cc23)cc1NC(=O)c1cc(CC(N)=O)cc(S(F)(F)(F)(F)F)c1 [Example 153]
### Response 0.3

New cases:
### Prompt Which measured IC50 value corresponds to Cc1ccc(NC(=O)c2cc(C(C)(C)C)cc(C(C)(C)O)c2)cc1-n1ccn2nc(-c3cccnc3)cc12 [Example 49] ?
### Response 0.3

### Prompt Endpoint output: IC50 of Cc1cc(C)c(-n2ccn3nc(-c4cccnc4)cc23)cc1NC(=O)c1cccc(OCCO)c1 [Example 136] . Value?
### Response 687

Values were extracted from patent US20150005288A1.
